Let's look at some compounds and their measured fluorescence change (max-min).
- System: Muscarinic acetylcholine receptor M1 (Rattus norvegicus)
- Assay procedure: rat M1 muscarinic receptor agonists, confirmation, CHO-M1 cells, Fluo-4 calcium, duplicate retest (AID 1488);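 note: an EC20 dose of acetylcholine follows compound addition during the same imaging run; raw fluorescence intensity difference in instrument units with no normalization to controls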
- Run parameters: Fluo-4 calcium fluorescence, agonist mode, at 10 µM, actives lie on both sides
The campaign covered roughly 1,700 compounds. About 310 (18%) were called active. Roughly 25% stayed inconclusive and do not appear here. Only a selection was taken, and actives are over-represented in it overall.
Lab note: jot the number down without any unit.

Compound	Recorded endpoint	Observed result
CCOc1cc(-c2nc3cc(C)ccn3c2NCC2CCCO2)ccc1O (stereo unspecified)	fluorescence change (max-min)	-30.6
CCN(CC)c1ccc2oc(=O)c(C)nc2c1	fluorescence change (max-min)	165
CCN=C1SC(CC(=O)Nc2ccc(C)cc2)C(=O)N1CC (stereo unspecified)	fluorescence change (max-min)	-26.1

// sample c1cnn(-c2cc(N3CCOCC3)ncn2)c1 , its fluorescence change (max-min) was -19

// sample COc1ccc2nc(N3CCCC(O)C3)c(C#N)cc2c1 (stereo unspecified) , its fluorescence change (max-min) was 206

// sample COc1ccc(C(C(O)C(=O)c2c[nH]c3ccccc23)N2CCN(c3ccccc3)CC2)cc1 (stereo unspecified) , its fluorescence change (max-min) was -11.7
